All values here come from the RNAGym collection of RNA variant scans (doi:10.1126/science.aae0568).

So I've got a bunch of variants here, and I need their yeast fitness values.
B1: tRNA (parent)
chain: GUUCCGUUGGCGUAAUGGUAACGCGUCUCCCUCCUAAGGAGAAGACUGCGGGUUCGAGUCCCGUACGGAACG

variants of: B1; experiment: yeast fitness relative to wild type (ratio to wild type); higher = fitter; tRNA-Arg(CCU), competitive growth, 37 C, YPD
Variants at the floor of the assay were thinned out.

// solved cases for yeast fitness follow
- GUUCCCUUAGCGUAAUGGUAUCGCGUCGCCCUCUUAAGGAGAAGCCUGCGGGUUCGAGUCCCGUACGGAACG: ≤ 0.5
- GUUCCGUUGGCCUAAUGGUAACGCGUCUCCCUCCUAAAGGGCAGACUGCGGGUUCGAGUCCCGUACGGAACG: ≤ 0.5
- GUUCCGUUGGCGUAAUGGUCUCGCGUGUCCCCCCGAAGGAGAAGACUGCGGGUUCGAGUCCCGUACGGAACG: ≤ 0.5
- GUUCCGUUGGCGUAAUGGUAAGGCGUCUCCCUCCUAUGGAGAUGACUGCGGGUUCGAGUCCCGUCCGGAACG: ≤ 0.5
- GUUCCGAUGACGUAAUGGUAACGCGUCUCCCUCCUAAGGAGAAGACUGCGGGUUUGAGUCGCGUGCGAAACG: ≤ 0.5
- GCCCCGUUGGCGUAAUGGUACCGAGUCUCCCUCCUAAGGAGAAGACUGCGGGUUCGAGUCCCGUCCGGAACG: ≤ 0.5

Please supply yeast fitness for each of the following items, keeping them in order.
1. GUUCCGUUGGUGAAAUGGUAAGGAGUCUCCCUCCUAAGGAGAAGAGUGCGGGUUUGAGUCCCGUACGGAACG
2. GUGCUGUUGGCGUAAUGGUAACGCGUCUCUCUCCUAAGGUGAAGACUGUGGGUUCGAGUCCCGUACGGAACG
3. GUUCUGUUGGCGUAAUGGUAACGCGUCUCCCGCCUUAGGAGAAGACUGCGGGUUCGAGUCCCGUACGCAACG
4. GUUCCGUUGGCGUGAUGGUAACGCGUCUCCCUCCUGAGGAGAAGACAGCGGGUUCGAGUCCCGUACGGAACG
5. GUUCCGUUGGCGUAGUGGUAACGCGUCUACCUCCUAAGGAGCAGACUGCGGGUUCGAGUCCCGUACGGAUCG
6. GUUCCGUUGACGUAAUGGUAACGCGUCUCCCUCCUAAGGAGAAGACUGCGGGUUCGAGUCCCGAACGGAACG
7. GUUCCGUUGGCGUAAUGGUAACGCGUCUCCGUCCCAAGGAGAAGACUGCGGGUUCGAGUCCCGUACGGAACG
8. GUUCCGUUGGCGUAAUGGUAACGCGUUUCCCUCCUAAGGAGAAGCCUGUGGGUUCAAGUCCCGUACGGAACG

**Result**
["≤ 0.5", "≤ 0.5", "≤ 0.5", "≤ 0.5", "≤ 0.5", 0.73, 0.823, "≤ 0.5"]

Please supply yeast fitness for each of the following items, keeping them in order.
1. GUUCCGUUGGCGUAAUGGUAACGAGUCUCCCUCCUAAGGAGAAGACUGCGGGUUCAAGUCCCGUACGGAACG
2. GUUCCGUUGGCGUAAUGGUAUCCCGUCUCCCUCCUAAGGAGAAGACUGUGGGUUCGAGUCCCGUACGGAACG
3. GUUCGGUUGGCGUAAAGGUAACGCGUCUUCCUCCUAAGGUGAAGACUGCGGGUUCGAGUCCCGUCCGGAACG
4. GUUCCGUUGGAGUAACGCUAACGCGUCUCCCUCCUAAGGAGAAGACUGCGGGUUCGAGUCACGUACAGAACG
5. GUUCCGUCGGCGUAAUGGUAACACGUCUCUCUCCUAAGGAGAAGACUGCGGGUUAGAGUCCCGUACGGAACG
6. GUUCCGUUGGCGUAAUGGUAACGCGUCUCCCUCCUAAGGCGAAGACUGCGGGUUCAAGUCCCGUACGGAGCG
7. GUUCCGUUGGAGUAAUGGUAACGCGUAUCCCUCCUAAGGAGAAGACUGCGGGUUCGAGUCCCGUACGGAACG
8. GUUCCGUUGGCGUGAAGGUAACGCGUCUCCCUACUAAGGAGAAGACUGUGGGUUUGAGUCCCGUACGGAACG

**Result**
0.711
≤ 0.5
≤ 0.5
≤ 0.5
≤ 0.5
0.556
0.654
≤ 0.5
